# tgt: human CD33 G318A (human, UniProt P20138 18-364)
# Sequence (P20138 18-364 G318A limits assumed): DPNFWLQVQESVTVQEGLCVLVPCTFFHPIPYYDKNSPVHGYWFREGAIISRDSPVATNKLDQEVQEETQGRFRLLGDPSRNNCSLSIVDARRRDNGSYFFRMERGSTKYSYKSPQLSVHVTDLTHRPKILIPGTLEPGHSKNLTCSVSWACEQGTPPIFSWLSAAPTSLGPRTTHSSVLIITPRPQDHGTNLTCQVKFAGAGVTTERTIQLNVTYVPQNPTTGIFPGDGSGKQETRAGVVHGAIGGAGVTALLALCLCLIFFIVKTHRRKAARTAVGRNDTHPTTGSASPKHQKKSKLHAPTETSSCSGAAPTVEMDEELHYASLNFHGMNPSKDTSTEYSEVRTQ
# run.description: flow cytometry, alanine scan
endpoint: Mean % WT Binding

{"binder": "Refmab #2 (antibody, V domains shown, The alanine scan used IgG or Fab) VH: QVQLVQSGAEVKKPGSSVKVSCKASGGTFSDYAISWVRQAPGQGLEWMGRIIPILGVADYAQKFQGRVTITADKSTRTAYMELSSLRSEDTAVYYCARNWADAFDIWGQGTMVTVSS VL: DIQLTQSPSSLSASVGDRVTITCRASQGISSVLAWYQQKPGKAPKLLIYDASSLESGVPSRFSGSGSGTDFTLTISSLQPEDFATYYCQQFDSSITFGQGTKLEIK", "data.value": "106 % of WT"}
{"binder": "Refmab #1 (antibody, V domains shown, The alanine scan used IgG or Fab; also called hP67.6) VH: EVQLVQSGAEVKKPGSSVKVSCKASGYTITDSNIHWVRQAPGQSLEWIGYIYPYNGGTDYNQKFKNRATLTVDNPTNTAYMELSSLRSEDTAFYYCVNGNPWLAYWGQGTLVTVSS VL: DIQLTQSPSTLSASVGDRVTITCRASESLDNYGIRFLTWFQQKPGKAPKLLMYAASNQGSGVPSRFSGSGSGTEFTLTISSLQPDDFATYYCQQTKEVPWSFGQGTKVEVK", "data.value": "98.5 % of WT"}

Enquiry: Return Mean % WT Binding for the following binder: Refmab #3 (antibody, V domains shown, The alanine scan used IgG or Fab) VH: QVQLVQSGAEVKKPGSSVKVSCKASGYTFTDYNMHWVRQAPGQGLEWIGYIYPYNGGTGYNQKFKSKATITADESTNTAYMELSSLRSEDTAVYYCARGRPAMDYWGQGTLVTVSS VL: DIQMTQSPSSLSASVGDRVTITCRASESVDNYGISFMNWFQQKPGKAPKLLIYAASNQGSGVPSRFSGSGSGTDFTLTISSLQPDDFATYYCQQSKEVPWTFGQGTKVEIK
Return: 117 % of WT
